- target_or_test_system: hNLRP3 (Homo sapiens, UniProt Q96P20)
- Construct: THP-1 cells were purchased from the American Type Culture Collection
- Sequence (Q96P20 whole entry): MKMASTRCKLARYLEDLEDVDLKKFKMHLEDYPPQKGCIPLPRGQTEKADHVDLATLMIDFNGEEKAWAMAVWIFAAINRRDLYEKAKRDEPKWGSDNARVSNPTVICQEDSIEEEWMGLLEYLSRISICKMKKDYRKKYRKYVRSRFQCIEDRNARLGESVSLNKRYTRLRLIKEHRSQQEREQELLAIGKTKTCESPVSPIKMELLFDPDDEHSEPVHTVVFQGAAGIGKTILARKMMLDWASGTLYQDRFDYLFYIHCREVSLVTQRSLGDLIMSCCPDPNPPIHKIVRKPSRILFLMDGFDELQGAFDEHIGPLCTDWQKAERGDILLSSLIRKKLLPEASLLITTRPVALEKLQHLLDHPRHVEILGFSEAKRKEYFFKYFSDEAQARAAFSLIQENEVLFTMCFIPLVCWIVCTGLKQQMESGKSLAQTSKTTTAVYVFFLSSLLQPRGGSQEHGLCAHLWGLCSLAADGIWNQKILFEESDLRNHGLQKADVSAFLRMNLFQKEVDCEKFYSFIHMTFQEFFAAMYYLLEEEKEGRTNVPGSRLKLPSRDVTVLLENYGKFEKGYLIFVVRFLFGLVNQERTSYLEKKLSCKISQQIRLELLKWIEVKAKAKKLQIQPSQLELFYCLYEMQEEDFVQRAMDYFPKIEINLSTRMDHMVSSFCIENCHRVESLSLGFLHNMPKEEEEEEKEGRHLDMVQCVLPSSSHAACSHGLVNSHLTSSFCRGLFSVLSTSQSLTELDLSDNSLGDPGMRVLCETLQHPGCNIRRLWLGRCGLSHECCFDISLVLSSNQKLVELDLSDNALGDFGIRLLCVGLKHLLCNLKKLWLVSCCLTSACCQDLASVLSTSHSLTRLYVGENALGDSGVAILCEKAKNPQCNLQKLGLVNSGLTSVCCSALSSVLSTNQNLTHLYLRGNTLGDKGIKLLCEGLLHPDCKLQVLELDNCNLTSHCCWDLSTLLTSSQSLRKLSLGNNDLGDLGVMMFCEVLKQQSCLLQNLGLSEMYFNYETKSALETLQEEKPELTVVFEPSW
- assay_details: IL-1β production in PMA-differentiated THP-1 cells stimulated with gramicidin (hTHP-1 assay)
- settings: read-out: NLRP3 Antagonist, hNLRP3 (THP-1, IL-1b) Normalized: GeoMean IC50
measure: IC50

Known IC50 results, listed for orientation:
compound: O=C(N=S1(=O)NC(=O)c2cccnc21)Nc1c2c(cc3c1CCC3)CCC2 (stereo not shown) [Compound 223]
IC50: 5 to 30 µM

compound: O=C(N=S1(=O)CCCN1)Nc1c2c(cc3c1CCC3)CCC2 (stereo not shown) [Compound 119]
IC50: 5 to 30 µM

compound: CN1C(=O)c2ccccc2S1(=O)=NC(=O)Nc1c2c(cc3c1CCC3)CCC2 (stereo not shown)
IC50: > 30 µM

compound: O=C(N=S1(=O)NC(=O)c2ccc(-n3cccn3)cc21)Nc1c2c(cc3c1CCC3)CCC2 (single isomer, unassigned) [Compound 211a]
IC50: 5 to 30 µM

compound: COCc1ccc2c(c1)S(=O)(=NC(=O)Nc1c3c(cc4c1CCC4)CCC3)NC2=O (stereo not shown)
IC50: 0.2 to 1 µM

compound: O=C(N=S1(=O)NC(=O)c2ccc(-n3cccn3)cc21)Nc1c2c(cc3c1CCC3)CCC2 (single isomer, unassigned) [Compound 211b]
IC50: > 30 µM

compound: O=C(N=S1(=O)NC(=O)c2ccc(CN3CCC3)cc21)Nc1c2c(cc3c1CCC3)CCC2 (stereo not shown)
IC50: 0.2 to 1 µM

compound: O=C(N=S1(=O)NC(=O)c2ccccc21)Nc1c2c(cc3c1CCC3)CCC2 (racemic) [Compound 129]
IC50: 1 to 5 µM

compound: O=C(N=S1(=O)NC(=O)c2ccc(CNCC3CC3)cc21)Nc1c2c(cc3c1CCC3)CCC2 (stereo not shown)
IC50: 0.2 to 1 µM

compound: CN(C)Cc1ccc2c(c1)CNS2(=O)=NC(=O)Nc1c2c(cc3c1CCC3)CCC2 (stereo not shown)
IC50: 5 to 30 µM

Request: Any idea what its IC50 is? The compound is CC(O)(CO)c1ccc2c(c1)S(=O)(=NC(=O)Nc1c3c(cc4c1CCC4)CCC3)NC2=O (single isomer, unassigned) [Compound 208b]
Result: 0.04 to 0.2 µM

Request: What about this compound? O=C(N=S1(=O)NC(=O)c2cccnc21)Nc1c2c(cc3c1CCC3)CCC2 (single isomer, unassigned) [Compound 223b]
Result: 5 to 30 µM

Request: What about this compound? O=C(N=S1(=O)NC(=O)c2ccc(CO)cc21)Nc1c2c(cc3c1CCC3)CCC2 (stereo not shown)
Result: 0.2 to 1 µM

Request: What about this compound? CC(C)c1cc(F)cc(C(C)C)c1CC(=O)N=S1(=O)NC(=O)c2ccc(C(C)(C)O)cc21 (stereo not shown)
Result: > 30 µM

Request: What about this compound? CN(C)Cc1ccc2c(c1)C(=O)NS2(=O)=NC(=O)Nc1c2c(cc3c1CCC3)CCC2 (stereo not shown)
Result: 5 to 30 µM

Source of measurements: patent US12134611B2
